Give Foxtail, Giant plant response rating (0 to 100 scale) for every item shown.
- System: foxtail, giant (giant foxtail, Setaria faberi)
- assay details: Test C preemergence, visual plant response rating
- Assay type: in vivo
- condition context: Test C, 125 g ai/ha, 0 is no effect, 100 is complete control
- Source text: […]
Simply state the number, no unit and no words.

## Input Enter reported Foxtail, Giant plant response rating (0 to 100 scale) observed with foxtail, giant (giant foxtail, Setaria faberi) for C#CCO/N=C(\c1c(O)c(Cl)nn(C)c1=O)c1ccc(F)c2ccccc12
## Output 100

## Input What do we get for CCO/N=C(\c1c(O)cnn(C)c1=O)c1ccc(F)c2ccccc12 ?
## Output 30

## Input Continue with Cc1nn(C)c(=O)c(/C(=N/OCCO)c2cccc3cc(Cl)ccc23)c1O
## Output 80

## Input And what about the compound CCCCON=C(c1cc(Cl)cc(Cl)c1Cl)c1c(O)c(C)nn(C)c1=O ?
## Output 100

## Input Repeat for the following compound: CO/N=C(/c1ccc(Cl)c(Cl)c1)c1c(O)c(C)nn(C)c1=O
## Output 0

## Input And the next one, CO/N=C(\c1cccc(/C=C\Cl)c1)c1c(O)c(C)nn(C)c1=O ?
## Output 100

## Input Then what about the compound C#CCO/N=C(\c1cc(Cl)cc(Br)c1)c1c(O)c(C)nn(C)c1=O ?
## Output 100

## Input Now give it for CO/N=C(\c1cc(F)cc(C)c1F)c1c(O)c(C)nn(C)c1=O too.
## Output 80

## Input Query CO/N=C(\c1c(O)cnn(C)c1=O)c1ccc(F)c2ccccc12 next
## Output 10
